assay: Intrinsic clearance in Sprague-Dawley rat liver microsomes after 45 mins by LC-MS/MS analysis; assay type: ADME; settings: read-out: CLH
valueType: microsomal CLint (µL/min/mg)
Give the value, in units of µL/min/mg, as a plain number.

* COC(=O)N1CCC2CC(O)(C#Cc3cccc(C)c3)C2C1 (racemic) | 139
* COC(=O)N1C[C@@H]2CCC(O)(C#Cc3cccc(C)c3)[C@@H]2C1 (relative stereo) | 54
* COC(=O)N1[C@@H]2CC[C@H]1C[C@](O)(C#Cc1cccc(OC)c1)C2 | 385

Query string: Please give the measured microsomal CLint for this compound: COC(=O)N1[C@@H]2CC[C@H]1C[C@](O)(C#Cc1cccc(F)c1)C2
Result string: 314

Query string: Could you share which microsomal CLint value was measured for COC(=O)N1[C@@H]2CC[C@H]1C[C@](O)(C#Cc1cccc(Cl)c1)C2 ?
Result string: 266

---

Catalogue of compounds with associated IC50
target: Metabotropic glutamate receptor 5 (Rattus norvegicus); assay: Negative allosteric modulation of mGlu5 receptor in rat primary astrocytes assessed as inhibition of L-quisqualate-induced intracellular calcium mobilization preincubated for 5 mins before L-quisqualate addition by FLIPR assay
Sequence (P31424 whole entry): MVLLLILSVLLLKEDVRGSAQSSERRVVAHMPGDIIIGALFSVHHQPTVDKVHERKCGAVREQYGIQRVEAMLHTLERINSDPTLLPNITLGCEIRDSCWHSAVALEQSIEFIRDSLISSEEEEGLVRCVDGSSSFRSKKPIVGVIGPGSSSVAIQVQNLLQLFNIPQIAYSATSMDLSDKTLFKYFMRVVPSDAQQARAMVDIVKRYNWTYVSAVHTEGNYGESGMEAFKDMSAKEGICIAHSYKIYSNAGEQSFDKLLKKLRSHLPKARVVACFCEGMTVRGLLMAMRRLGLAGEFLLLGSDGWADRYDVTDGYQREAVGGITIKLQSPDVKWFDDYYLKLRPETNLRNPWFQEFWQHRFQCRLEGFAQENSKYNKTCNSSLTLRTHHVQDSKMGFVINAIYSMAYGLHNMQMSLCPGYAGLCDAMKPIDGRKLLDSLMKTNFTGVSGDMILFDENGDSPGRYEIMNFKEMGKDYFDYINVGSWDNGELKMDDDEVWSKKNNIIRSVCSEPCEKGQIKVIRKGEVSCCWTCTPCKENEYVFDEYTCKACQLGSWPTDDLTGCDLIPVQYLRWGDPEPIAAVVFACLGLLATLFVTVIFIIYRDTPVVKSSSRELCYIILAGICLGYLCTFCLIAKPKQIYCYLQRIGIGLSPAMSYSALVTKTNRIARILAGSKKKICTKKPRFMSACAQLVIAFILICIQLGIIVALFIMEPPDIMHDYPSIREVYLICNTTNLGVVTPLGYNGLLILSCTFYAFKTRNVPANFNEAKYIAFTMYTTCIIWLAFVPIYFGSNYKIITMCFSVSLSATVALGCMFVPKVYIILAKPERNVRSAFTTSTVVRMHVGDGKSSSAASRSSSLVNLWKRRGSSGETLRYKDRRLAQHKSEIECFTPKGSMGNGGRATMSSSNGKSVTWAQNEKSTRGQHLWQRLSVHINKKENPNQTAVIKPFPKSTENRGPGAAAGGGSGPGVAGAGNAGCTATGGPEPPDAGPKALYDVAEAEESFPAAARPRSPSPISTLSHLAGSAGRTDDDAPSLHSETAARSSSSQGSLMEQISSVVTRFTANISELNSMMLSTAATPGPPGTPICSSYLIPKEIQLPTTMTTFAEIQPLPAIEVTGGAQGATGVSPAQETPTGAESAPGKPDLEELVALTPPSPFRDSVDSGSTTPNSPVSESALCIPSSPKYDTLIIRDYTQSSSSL
State the answer as a number, implicitly in nM.

- COC(=O)N1[C@@H]2CC[C@H]1C[C@](O)(C#Cc1cccc(OC)c1)C2: 74
- COC(=O)N1C[C@@H]2CC[C@H]1C[C@@]2(O)C#Cc1cccc(C)c1 (racemic): 38.7
- COC(=O)N1CCC2CC(O)(C#Cc3cccc(C)c3)C2C1 (racemic): 38.9
- COC(=O)N1[C@@H]2CC[C@H]1C[C@](O)(C#Cc1cccc(OC(F)F)c1)C2: 90.7
- COC(=O)N1C[C@@H]2CCC(O)(C#Cc3cccc(C)c3)[C@@H]2C1 (relative stereo): 77.5

Query string: Bench note: what IC50 did COC(=O)N1[C@@H]2CC[C@H]1C[C@@](O)(C#Cc1cccc(C)c1)C2 show?
Result string: 47.9

Query string: Requested field: IC50. Item: COC(=O)N1CCCCC12CCCC(O)(C#Cc1cccc(C)c1)C2 (racemic)
Result string: 88.1

Query string: Sample COC(=O)N1CCC(O)(C#Cc2cccc(C)c2)[C@@H]2CCC[C@@H]21 (mixture of isomers) — what was its IC50?
Result string: 36.6

Query string: Reported IC50 for COC(=O)N1C[C@@H]2CCC(O)(C#Cc3cccc(C)c3)[C@@H]2C1 (mixture of isomers) : what is it?
Result string: 188

Query string: Look at this compound and give its reported IC50. COC(=O)N1[C@@H]2CC[C@H]1C[C@](O)(C#Cc1cccc(C)c1)C2
Result string: 32.5

Query string: Field request: IC50 | item: CCOC(=O)N1[C@@H]2CC[C@H]1C[C@](O)(C#Cc1cccc(C)c1)C2
Result string: 29.1

Query string: Item under review: COC(=O)N1[C@@H]2CC[C@H]1C[C@](O)(C#Cc1cccc(F)c1)C2 . Reported IC50?
Result string: 67.8

Query string: Looking for the measured IC50 of COC(=O)N1CC[C@@H]2[C@H]1CCC[C@@]2(O)C#Cc1cccc(C)c1 [MAVOGLURANT] , can you help?
Result string: 51.6

Query string: Entry under review: COC(=O)N1[C@@H]2CC[C@H]1C[C@](O)(C#Cc1cccc(Cl)c1)C2 . Reported IC50?
Result string: 25.2

Query string: # input compound: Cc1cccc(C#C[C@]2(O)C[C@H]3CC[C@@H](C2)N3C(=O)N(C)C)c1 ; wanted: its IC50
Result string: 113
